# System: Helicobacter pylori
# Assay Text: In vitro antibacterial activity against Helicobacter pylori (CPY 2052)
# Format: functional
Outcome Measure: MIC (µg/mL)
Answer with a number only, understood to be in µg/mL.

Answered examples (2):
CC1(C)S[C@@H]2[C@H](NC(=O)[C@H](N)c3ccc(O)cc3)C(=O)N2[C@H]1C(=O)O :: 0.05
CC(C)=CCC/C(C)=C/CC/C(=C/CC/C(C)=C/C/N=C(\S)NCCc1ccccc1)C/N=C(\S)NCCc1ccccc1 :: 0.78

Next item in the queue.
The compound identified as CC(C)=CCC/C(C)=C/CCC(=CCCC(C)=CCO)C/N=C(\S)NCCc1ccccc1 registered its MIC at 1.56
